Target: Protein kinase C iota type (Homo sapiens) (UniProt P41743)
Sequence (P41743 whole entry, the tested form may be a part): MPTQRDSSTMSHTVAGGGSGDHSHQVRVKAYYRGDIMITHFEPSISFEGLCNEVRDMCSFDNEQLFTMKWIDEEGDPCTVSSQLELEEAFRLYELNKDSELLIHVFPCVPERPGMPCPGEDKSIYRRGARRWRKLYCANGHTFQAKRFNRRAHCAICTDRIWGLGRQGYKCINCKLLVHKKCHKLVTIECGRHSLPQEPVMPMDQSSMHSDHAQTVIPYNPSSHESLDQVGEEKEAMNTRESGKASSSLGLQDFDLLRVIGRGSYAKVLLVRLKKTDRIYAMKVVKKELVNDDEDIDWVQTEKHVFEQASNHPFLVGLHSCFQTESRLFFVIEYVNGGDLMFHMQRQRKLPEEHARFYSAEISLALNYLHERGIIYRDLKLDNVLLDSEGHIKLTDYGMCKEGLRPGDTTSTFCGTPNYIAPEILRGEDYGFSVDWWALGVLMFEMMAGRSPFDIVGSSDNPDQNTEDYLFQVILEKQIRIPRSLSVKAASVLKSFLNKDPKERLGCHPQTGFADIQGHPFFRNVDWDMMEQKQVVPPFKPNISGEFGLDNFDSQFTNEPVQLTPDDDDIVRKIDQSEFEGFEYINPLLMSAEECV
Experiment: Inhibition of recombinant GST-fused PKCiota (unknown origin) expressed in HEK293 cells at 20 uM using myelin basic protein as substrate measured after 40 mins in presence of [gamma32P]ATP by phosphorimaging analysis relative to control
METRIC: inhibition (%)

COMPOUND | UNITS OF MEASURE | inhibition
Oc1ccc(C2=NN(c3cccc(Cl)c3)C(c3ccc(Cl)cc3)C2)cc1 (stereo not drawn) | % | 22.8
Oc1ccc(C2=NN(c3ccc(Cl)cc3)C(c3cccc(Cl)c3)C2)cc1 (stereo not drawn) | % | 18.6
Oc1ccc(C2=NN(c3ccccc3Cl)C(c3ccccc3Cl)C2)cc1 (stereo not drawn) | % | 30.5
Oc1ccc(C2=NN(c3ccc(Cl)cc3)C(c3ccc(Cl)cc3)C2)cc1 (stereo not drawn) | % | 24.9
Oc1ccc(C2=NN(c3cccc(Cl)c3)C(c3cccc(Cl)c3)C2)cc1 (stereo not drawn) | % | 29

a = Oc1ccc(C2=NN(c3ccc(Cl)cc3)C(c3ccc(Cl)cc3)C2)cc1O (stereo not drawn)
b = Oc1ccc(C2=NN(c3ccc(Cl)cc3)C(c3ccc(Cl)cc3)C2)c(O)c1 (stereo not drawn)
c = Oc1cccc(C2=NN(c3ccc(Cl)cc3)C(c3ccc(Cl)cc3)C2)c1 (stereo not drawn)
## Task Returns the items ordered by inhibition, from maximum to minimum. # respond with the labels, arranged in the requested order
## Result a, b, c
(a: 27.6%, b: 14.8%, c: 9.3%)

====

Tested on: RAW264.7
Assay: Inhibition of LPS-induced nitric oxide production in mouse RAW264.7 cells measured after 20 hrs by griess assay
Type: functional, cell-based
Details: RAW264.7, 20 h
METRIC: IC50 (µM)

COMPOUND | IC50, µM
Oc1ccc(C2CC(c3ccccc3O)=NN2c2cccc(Cl)c2)cc1F (centres undefined) | 2.9

a = Oc1ccc(C2=NN(c3ccc(Cl)cc3)C(c3ccc(Cl)cc3)C2)cc1O (centres undefined)
b = COc1cc(/C=C/C(=O)CC(=O)/C=C/c2ccc(O)c(OC)c2)ccc1O [CURCUMIN]
c = Oc1ccc(C2=NN(c3cccc(Cl)c3)C(c3ccc(O)c(F)c3)C2)c(O)c1 (centres undefined)
## Task Put these in order: smallest IC50 first, largest last. Note for the reader: the ranking is given by listing the labels in the order requested.
## Result a, b, c
(a: 0.3 µM, b: 0.8 µM, c: 3.1 µM)

====

Below, each entry is listed alongside its reported viability at 20 h, 7.5 µM.
Experiment: Cytotoxicity against mouse RAW264.7 cells assessed as live cells at 7.5 uM after 20 hrs by MTT assay relative to control
Assay type: cell-based
Conditions: read-out: Activity
Could you give me the number in %? Just the number is fine.

COMPOUND | viability at 20 h, 7.5 µM (%)
Oc1ccc(C2=NN(c3ccc(Cl)cc3)C(c3ccc(Cl)cc3)C2)c(O)c1 (stereo not drawn) | 88
Oc1ccc(C2=NN(c3cccc(Cl)c3)C(c3ccc(Cl)cc3)C2)cc1 (stereo not drawn) | 91
Oc1ccc(C2=NN(c3ccc(Cl)cc3)C(c3ccc(Cl)cc3)C2)cc1O (stereo not drawn) | 94
Oc1ccc(C2=NN(c3ccc(Cl)cc3)C(c3ccc(Cl)cc3)C2)cc1 (stereo not drawn) | 99
Oc1ccc(C2=NN(c3cccc(Cl)c3)C(c3cccc(Cl)c3)C2)cc1 (stereo not drawn) | 86

## Task Look at this compound and give its reported viability at 20 h, 7.5 µM. Oc1ccc(C2=NN(c3ccc(Cl)cc3)C(c3cccc(Cl)c3)C2)cc1 (stereo not drawn)
## Result 96

## Task If you can, please state the reported viability at 20 h, 7.5 µM value of Oc1cccc(C2=NN(c3ccc(Cl)cc3)C(c3ccc(Cl)cc3)C2)c1 (stereo not drawn) .
## Result 91

## Task Name the recorded viability at 20 h, 7.5 µM for Oc1ccc(C2=NN(c3ccccc3Cl)C(c3ccccc3Cl)C2)cc1 (stereo not drawn) .
## Result 92
